# Test system: oilseed rape (Brassica napus)
# test_details: Test C pre-/postemergence greenhouse herbicide test
# Format: in vivo
# condition_set: Oilseed Rape; Preemergence; 250 g ai/ha
readout: Plant response rating
Please give only the number in your answer, with no unit.

Please tell me: Plant response rating of `CCOc1cc(=O)n(-c2ccc(F)cc2)nc1Cc1ccnc(C(F)(F)F)c1` , system oilseed rape (Brassica napus)? 95

What measured Plant response rating is associated with `Cc1cc(=O)n(-c2ccc(C(F)(F)F)cc2)nc1Cc1ccnc(C(F)(F)F)c1` on oilseed rape (Brassica napus)? 100

Request - read-out Plant response rating | tested on oilseed rape (Brassica napus) | compound `Cc1cc(=O)n(-c2ccc(F)cc2)nc1Cc1ccnc(C(F)(F)F)c1` 100

Please tell me: Plant response rating of `COc1cc(=O)n(-c2ccc(F)cc2)nc1Cc1ccnc(C(F)(F)F)c1` , system oilseed rape (Brassica napus)? 100

Can you look up Plant response rating on oilseed rape (Brassica napus) for `COc1cc(=O)n(-c2ccc(C(F)(F)F)cc2)nc1Cc1ccnc(C(F)(F)F)c1` ? 100

====

Can you tell me plant injury at 250 g/ha for the items I'm about to list?
# Test system: rice (Oryza sativa)
# test_details: Test B flooded paddy test
# Assay type: in vivo
# condition_set: Oryza sativa, 312 h; Flood, 250 g ai/ha; scale of 0 to 100, 0 is no effect, 100 is complete control; 13 to 15 d; read-out: Plant response rating, Rice
Numeric answer plus unit only.

Please report the recorded plant injury at 250 g/ha for Cc1cc(=O)n(-c2ccc(F)cc2)nc1Cn1ccc(C(F)(F)F)n1 [Compound 3] . 0%

Reported plant injury at 250 g/ha, molecule CCOc1cc(=O)n(-c2ccc(F)cc2)nc1C(O)c1ccnc(C(F)(F)F)c1 (stereo not shown) [Compound 23] : ____ 10%

Param item = Cc1cc(=O)n(-c2ccc(F)cc2)nc1Oc1ccnc(C(F)(F)F)c1 [Compound 14] ; retrieve measured plant injury at 250 g/ha. 30%

Request the reported plant injury at 250 g/ha associated with CCOc1cc(=O)n(-c2ccc(F)cc2)nc1C(=O)c1ccnc(C(F)(F)F)c1 [Compound 22] 10%

====

# Test system: barley, winter (winter barley, Hordeum vulgare)
# test_details: Test D pre-/postemergence controlled growth environment herbicide test
# Assay type: in vivo
# condition_set: Postemergence, 125 g ai/ha, scale 0 to 100
readout: Plant response rating
Just the number.

# returns recorded Plant response rating (system: barley, winter (winter barley, Hordeum vulgare)) for `Cc1cc(=O)n(-c2ccc(F)cc2)nc1Oc1ccnc(C(F)(F)F)c1` 20

What reported Plant response rating corresponds to `COc1cc(=O)n(-c2ccc(F)cc2)nc1Cc1ccnc(C(F)(F)F)c1` on barley, winter (winter barley, Hordeum vulgare)? 25

Please provide the recorded Plant response rating for `Cc1cc(=O)n(-c2ccc(F)cc2)nc1Cc1ccnc(C(F)(F)F)c1` , tested on barley, winter (winter barley, Hordeum vulgare). 0

Tell me reported Plant response rating for `Cc1cc(=O)n(-c2ccc(C(F)(F)F)cc2)nc1Cc1ccnc(C(F)(F)F)c1` , tested with barley, winter (winter barley, Hordeum vulgare). 15

====

# System: velvetleaf (Abutilon theophrasti)
# test_details: Test C pre-/postemergence greenhouse herbicide test
# Assay type: in vivo
# condition_set: Abutilon theophrasti, post-emergence; Velvetleaf; Postemergence; 31 g ai/ha; read-out: Plant response rating
Kindly supply the reported pest or weed control at 31 g/ha values for the records listed here.
Reply numerically in %, unit not repeated.

Which value of pest or weed control at 31 g/ha has been reported for COc1cc(=O)n(-c2ccc(F)cc2)nc1Cc1ccnc(C(F)(F)F)c1 [Compound 17] in the records? 20

Query (compound): Cc1cc(=O)n(-c2ccc(C(F)(F)F)cc2)nc1Cc1ccnc(C(F)(F)F)c1 [Compound 2] ; field requested: pest or weed control at 31 g/ha 25

Which pest or weed control at 31 g/ha value is on record for Cc1cc(Oc2ccnc(C(F)(F)F)c2)nn(-c2ccc(C(F)(F)F)cc2)c1=O [Compound 6] ? 45

For the compound COc1cc(=O)n(-c2ccc(C(F)(F)F)cc2)nc1Cc1ccnc(C(F)(F)F)c1 [Compound 16] , what pest or weed control at 31 g/ha is on record? 25

What does the record list as pest or weed control at 31 g/ha for Cc1cc(=O)n(-c2ccc(F)cc2)nc1Cc1ccnc(C(F)(F)F)c1 [Compound 1] ? 10

Entry Cc1cc(=O)n(-c2ccc(F)cc2)nc1Oc1ccnc(C(F)(F)F)c1 [Compound 14] : reported pest or weed control at 31 g/ha = ? 10

====

# System: velvetleaf (Abutilon theophrasti)
# test_details: Test C pre-/postemergence greenhouse herbicide test
# Assay type: in vivo
# condition_set: Abutilon theophrasti, post-emergence; Velvetleaf; Postemergence; 62 g ai/ha; read-out: Plant response rating
readout: pest or weed control at 62 g/ha (%)
Use % as the unit, but write only the number.

For `Cc1cc(=O)n(-c2ccc(F)cc2)nc1Oc1ccnc(C(F)(F)F)c1` , what is its reported pest or weed control at 62 g/ha? 30

State the recorded pest or weed control at 62 g/ha for this entry: `COc1cc(=O)n(-c2ccc(F)cc2)nc1Cc1ccnc(C(F)(F)F)c1` 20

Need pest or weed control at 62 g/ha, item `Cc1cc(=O)n(-c2ccc(C(F)(F)F)cc2)nc1Cc1ccnc(C(F)(F)F)c1` 30

// lookup pest or weed control at 62 g/ha for `Cc1cc(=O)n(-c2ccc(F)cc2)nc1Cc1ccnc(C(F)(F)F)c1` 20

Could you tell me which pest or weed control at 62 g/ha is on file for `COc1cc(=O)n(-c2ccc(C(F)(F)F)cc2)nc1Cc1ccnc(C(F)(F)F)c1` ? 50

I'd like to know its pest or weed control at 62 g/ha. The compound in question is `Cc1cc(Oc2ccnc(C(F)(F)F)c2)nn(-c2ccc(C(F)(F)F)cc2)c1=O` 45

====

# System: sedge, umbrella (small-flower umbrella sedge, Cyperus difformis)
# test_details: Test B flooded paddy test
# Format: in vivo
# condition_set: Cyperus difformis, 312 h; Flood, 125 g ai/ha; scale of 0 to 100, 0 is no effect, 100 is complete control; 13 to 15 d; read-out: Plant response rating, Sedge, Umbrella
readout: pest or weed control at 125 g/ha (%)
Field: numeric (%). Do not append units.

For the compound shown here, Cc1cc(=O)n(-c2ccc(C(F)(F)F)cc2)nc1Oc1ccnc(C(F)(F)F)c1 [Compound 5] , give the reported pest or weed control at 125 g/ha. 80

Entry COc1cc(=O)n(-c2ccc(F)cc2)nc1Cc1ccnc(C(F)(F)F)c1 [Compound 17] has what pest or weed control at 125 g/ha? 90

Which value of pest or weed control at 125 g/ha has been reported for Cc1cc(Oc2ccnc(C(F)(F)F)c2)nn(-c2ccc(C(F)(F)F)cc2)c1=O [Compound 6] in the records? 0

Item under review: Cc1cc(=O)n(-c2ccc(F)cc2)nc1Cc1ccnc(C(F)(F)F)c1 [Compound 1] . Reported pest or weed control at 125 g/ha? 80

Which pest or weed control at 125 g/ha value belongs to CCOc1cc(=O)n(-c2ccc(F)cc2)nc1Cc1ccnc(C(F)(F)F)c1 [Compound 25] ? 75

What value of measured pest or weed control at 125 g/ha is listed for Cc1cc(=O)n(-c2ccc(C(F)(F)F)cc2)nc1Cc1ccnc(C(F)(F)F)c1 [Compound 2] ? 80

Quick one: pest or weed control at 125 g/ha of COc1cc(=O)n(-c2ccc(C(F)(F)F)cc2)nc1Cc1ccnc(C(F)(F)F)c1 [Compound 16] ? 80

====

# Test system: foxtail, giant (giant foxtail, Setaria faberii)
# test_details: Test A pre-/postemergence greenhouse herbicide test
# Assay type: in vivo
# condition_set: Postemergence, 125 g ai/ha; 0 to 100 scale (0 no effect, 100 complete control), approx. 10 d
Label true when Plant response rating, Foxtail, Giant is at or above 10; otherwise label false.

For this compound, is measured Plant response rating, Foxtail, Giant 10 or higher? `CCOc1cc(=O)n(-c2ccc(C(F)(F)F)cc2)nc1Cc1ccnc(C(F)(F)F)c1` true

Form field: Plant response rating, Foxtail, Giant at least 10? Entry: `Cc1cc(=O)n(-c2ccc(F)cc2)nc1Oc1cccc(C(F)(F)F)n1` true

Say whether `CCCc1cc(=O)n(-c2ccc(F)cc2)nc1Cc1ccnc(C(F)(F)F)c1` shows Plant response rating, Foxtail, Giant of 10 or more. true

State whether the measured Plant response rating, Foxtail, Giant reaches 10, counting equality as reaching it, for `Cc1cc(=O)n(-c2ccc(F)cc2)nc1Cc1cccc(C(F)(F)F)c1` true

Quick check, Plant response rating, Foxtail, Giant >= 10? `Cc1cc(=O)n(-c2cccc(C(F)(F)F)c2)nc1Oc1ccnc(C(F)(F)F)c1` true

Does the reported Plant response rating, Foxtail, Giant for `Cc1cc(Oc2ccnc(C(F)(F)F)c2)nn(-c2ccc(F)cc2)c1=O` fall at or above the 10 mark? true

Could you please find out whether `Cc1cc(=O)n(-c2ccc(F)cc2)nc1Oc1cc(C(F)(F)F)ccn1` has Plant response rating, Foxtail, Giant that meets 10 or exceeds it? false

Hi team, for `Cc1cc(Oc2cc(C(F)(F)F)ccn2)nn(-c2ccc(F)cc2)c1=O` , is the recorded Plant response rating, Foxtail, Giant at or above 10? false
